All figures here come from the supplement of paper PMC11061612.

test system: SISO (Cervical Carcinoma); assay: Bliss excess, mean over the matrix (fraction); higher = more synergy
MEASURED METRIC: Bliss excess
Just the number, please, no unit attached.

These recorded examples may help you get a feel for the data.
| COMPOUND | Bliss excess |
| --- | --- |
| CCN(CCO)CCCOc1ccc2c(Nc3cc(CC(=O)Nc4cccc(F)c4)[nH]n3)ncnc2c1 [AZD2811] + C=CCn1c(=O)c2cnc(Nc3ccc(N4CCN(C)CC4)cc3)nc2n1-c1cccc(C(C)(C)O)n1 [AZD1775] (first compound max 1 µM, partner max 1 µM) | 0.0157 |
| COc1cccc(OCCCN)c1-c1cc(Nc2cnc(C#N)cn2)n[nH]1 [Prexasertib] + O=C(c1cc(Cc2n[nH]c(=O)c3ccccc23)ccc1F)N1CCN(C(=O)C2CC2)CC1 [Olaparib] (first compound max 1 µM, 7x7, partner max 10 µM) | 0.0003 |
| CC1(C)CCC(CN2CCN(c3ccc(C(=O)NS(=O)(=O)c4ccc(NCC5CCOCC5)c([N+](=O)[O-])c4)c(Oc4cnc5[nH]ccc5c4)c3)CC2)=C(c2ccc(Cl)cc2)C1 [Venetoclax] + C=CCn1c(=O)c2cnc(Nc3ccc(N4CCN(C)CC4)cc3)nc2n1-c1cccc(C(C)(C)O)n1 [AZD1775] (first compound max 1 µM, partner max 1 µM) | -0.0765 |
| COc1nnc2ccc(N3CCC(c4ccc(OCCN5CCN(C)C(=O)[C@H]5C)cc4)CC3)nn12 [AZD5153] + C[C@@H]1COCCN1C2=NC(=NC(=C2)C3(CC3)[S@](=N)(=O)C)C4=C5C=CNC5=NC=C4 [AZD6738] (first compound max 1 µM, 7x7, partner max 10 µM) | 0.008 |
| CC1(C)CCC(CN2CCN(c3ccc(C(=O)NS(=O)(=O)c4ccc(NCC5CCOCC5)c([N+](=O)[O-])c4)c(Oc4cnc5[nH]ccc5c4)c3)CC2)=C(c2ccc(Cl)cc2)C1 [Venetoclax] + COc1cc(Nc2ncc3c(n2)-c2ccc(Cl)cc2C(c2c(F)cccc2OC)=NC3)ccc1C(=O)O [Alisertib] (first compound max 1 µM, 7x7, partner max 10 µM) | 0.0121 |

### Prompt For the compound COc1cccc(OCCCN)c1-c1cc(Nc2cnc(C#N)cn2)n[nH]1 [Prexasertib] + CCc1c2c(nc3ccc(O)cc13)-c1cc3c(c(=O)n1C2)COC(=O)[C@]3(O)CC [SN-38] (first compound max 1 µM, 7x7, partner max 0.3 µM) , report Bliss excess.
### Response 0.0277

### Prompt For the compound CN(C)CCCOc1ccc(-c2ccc3ncc4c(c3c2)n(C2CCOCC2)c(=O)n4C)cn1 [AZD0156] + C=CCn1c(=O)c2cnc(Nc3ccc(N4CCN(C)CC4)cc3)nc2n1-c1cccc(C(C)(C)O)n1 [AZD1775] (first compound max 1 µM, partner max 1 µM) , report Bliss excess.
### Response -0.0513

###

system: BICR22 (Oral Cavity Carcinoma); test: combination Emax (second highest fraction inhibited in the dose matrix, 72 h); higher = more inhibition; extreme values may be limits of the assay
Recorded measurements of combination Emax, one per entry
Just the number, please, no unit attached.

These recorded examples may help you get a feel for the data.
| COMPOUND | MEASURED METRIC | READOUT NUMBER |
| --- | --- | --- |
| CC1(C)CCC(CN2CCN(c3ccc(C(=O)NS(=O)(=O)c4ccc(NCC5CCOCC5)c([N+](=O)[O-])c4)c(Oc4cnc5[nH]ccc5c4)c3)CC2)=C(c2ccc(Cl)cc2)C1 [Venetoclax] + COc1cc(Nc2ncc3c(n2)-c2ccc(Cl)cc2C(c2c(F)cccc2OC)=NC3)ccc1C(=O)O [Alisertib] (first compound max 1 µM, 7x7, partner max 10 µM) | combination Emax | 0.501 |
| CN(C)CCCOc1ccc(-c2ccc3ncc4c(c3c2)n(C2CCOCC2)c(=O)n4C)cn1 [AZD0156] + C[C@@H]1COCCN1C2=NC(=NC(=C2)C3(CC3)[S@](=N)(=O)C)C4=C5C=CNC5=NC=C4 [AZD6738] (first compound max 1 µM, 7x7, partner max 10 µM) | combination Emax | 0.724 |
| Cc1cc2ncnn2cc1Nc1ncc2c(n1)n(C1CCOCC1)c(=O)n2C [AZD7648] + C[C@@H]1COCCN1C2=NC(=NC(=C2)C3(CC3)[S@](=N)(=O)C)C4=C5C=CNC5=NC=C4 [AZD6738] (first compound max 10 µM, 7x7, partner max 10 µM) | combination Emax | 0.761 |
| CC1(C)CCC(CN2CCN(c3ccc(C(=O)NS(=O)(=O)c4ccc(NCC5CCOCC5)c([N+](=O)[O-])c4)c(Oc4cnc5[nH]ccc5c4)c3)CC2)=C(c2ccc(Cl)cc2)C1 [Venetoclax] + CCN(CCO)CCCOc1ccc2c(Nc3cc(CC(=O)Nc4cccc(F)c4)[nH]n3)ncnc2c1 [AZD2811] (first compound max 1 µM, 7x7, partner max 1 µM) | combination Emax | 0.492 |
| CCN(CCO)CCCOc1ccc2c(Nc3cc(CC(=O)Nc4cccc(F)c4)[nH]n3)ncnc2c1 [AZD2811] + C=CCn1c(=O)c2cnc(Nc3ccc(N4CCN(C)CC4)cc3)nc2n1-c1cccc(C(C)(C)O)n1 [AZD1775] (first compound max 1 µM, partner max 1 µM) | combination Emax | 0.468 |
| N#Cc1cnc(Nc2cc(NC[C@H]3CNCCO3)c(C(F)(F)F)cn2)cn1 [SRA737] + O=c1[nH]cc(F)c(=O)[nH]1 [5-Fluorouracil] (first compound max 10 µM, 7x7, partner max 20 µM) | combination Emax | 0.84 |

Please find the next compound below.
### Prompt Report measured combination Emax on BICR22 (Oral Cavity Carcinoma); entry: Cc1cc2ncnn2cc1Nc1ncc2c(n1)n(C1CCOCC1)c(=O)n2C [AZD7648] + COc1cc([C@@H]2c3cc4c(cc3[C@@H](O[C@@H]3O[C@@H]5CO[C@@H](C)O[C@H]5[C@H](O)[C@H]3O)[C@H]3COC(=O)[C@H]23)OCO4)cc(OC)c1O [Etoposide] (first compound max 10 µM, 7x7, partner max 10 µM)
### Response 0.856

###

tested on: PANC-10-05 (Pancreatic Carcinoma); assay: Bliss excess, mean over the matrix (fraction); higher = more synergy
MEASURED METRIC: Bliss excess
Just the number, please, no unit attached.

| COMPOUND | Bliss excess |
| --- | --- |
| CC1(C)CCC(CN2CCN(c3ccc(C(=O)NS(=O)(=O)c4ccc(NCC5CCOCC5)c([N+](=O)[O-])c4)c(Oc4cnc5[nH]ccc5c4)c3)CC2)=C(c2ccc(Cl)cc2)C1 [Venetoclax] + CS(=O)(=O)CCNCc1ccc(-c2ccc3ncnc(Nc4ccc(OCc5cccc(F)c5)c(Cl)c4)c3c2)o1 [Lapatinib] (first compound max 1 µM, 7x7, partner max 10 µM) | -0.0426 |
| CN(CCO)CC[C@H](CSc1ccccc1)Nc1ccc(S(=O)(=O)NC(=O)c2ccc(N3CCC([C@@H](O)c4ccccc4-c4ccc(Cl)cc4)CC3)cc2)cc1S(=O)(=O)C(F)(F)F [AZD4320] + CS(=O)(=O)CCNCc1ccc(-c2ccc3ncnc(Nc4ccc(OCc5cccc(F)c5)c(Cl)c4)c3c2)o1 [Lapatinib] (first compound max 1 µM, 7x7, partner max 10 µM) | -0.021 |
| O=C(c1cc(Cc2n[nH]c(=O)c3ccccc23)ccc1F)N1CCN(C(=O)C2CC2)CC1 [Olaparib] + CN(CC[C@H](CSC1=CC=CC=C1)NC2=C(C=C(C=C2)S(=O)(=O)NC(=O)C3=CC=C(C=C3)N4CCC(CC4)[C@H](C5=CC=CC=C5C6=CC=C(C=C6)Cl)O)S(=O)(=O)C(F)(F)F)CCO [AZD4320] (first compound max 10 µM, 7x7, partner max 1 µM) | -0.0548 |

### Prompt For the compound NC1(C(=O)N[C@@H](CCO)c2ccc(Cl)cc2)CCN(c2ncnc3[nH]ccc23)CC1 [Capivasertib] + C[C@@H]1COCCN1C2=NC(=NC(=C2)C3(CC3)[S@](=N)(=O)C)C4=C5C=CNC5=NC=C4 [AZD6738] (first compound max 10 µM, 7x7, partner max 10 µM) , report Bliss excess.
### Response -0.0946

### Prompt For the compound N#Cc1cnc(Nc2cc(NC[C@H]3CNCCO3)c(C(F)(F)F)cn2)cn1 [SRA737] + C=CCn1c(=O)c2cnc(Nc3ccc(N4CCN(C)CC4)cc3)nc2n1-c1cccc(C(C)(C)O)n1 [AZD1775] (first compound max 10 µM, partner max 1 µM) , report Bliss excess.
### Response -0.101

### Prompt For the compound Cc1c2c(nn1C)CSCc1cc(n(C)n1)CSc1cc(c3ccccc3c1)OCCCc1c(C(=O)O)n(C)c3c-2c(Cl)ccc13 [AZD5991] + CC1(C)CCC(CN2CCN(c3ccc(C(=O)NS(=O)(=O)c4ccc(NCC5CCOCC5)c([N+](=O)[O-])c4)c(Oc4cnc5[nH]ccc5c4)c3)CC2)=C(c2ccc(Cl)cc2)C1 [Venetoclax] (first compound max 1 µM, 7x7, partner max 1 µM) , report Bliss excess.
### Response -0.0506

### Prompt For the compound Cn1cnc2c(F)c(Nc3ccc(Br)cc3Cl)c(C(=O)NOCCO)cc21 [Selumetinib] + CC(C)n1c(=O)n(C)c2cnc3cc(F)c(-c4ccc(OCCCN5CCCCC5)nc4)cc3c21 [AZD1390] (first compound max 10 µM, 7x7, partner max 0.3 µM) , report Bliss excess.
### Response -0.0783
